System: NCI-H522 lung
ASSAY INFO: NCI tumour cell line growth inhibition, 48 h
Where a SMILES comes first, the peptide text is derived from it. [ ]: non-standard residue; d: D form. 2Nal = N[CH](Cc1ccc2ccccc2c1)C(=O)O
MEASUREMENT KIND: TGI

{"MOLECULE": "C[C@H](CCc1nc(C#N)c(N)o1)[C@H]1CC[C@H]2[C@@H]3[C@@H](O)CC4C[C@@H](O)CC[C@]4(C)[C@H]3C[C@@H](O)[C@]12C (stereo partly specified)", "ENDPOINT RESULT": "18.4 µM"}
{"MOLECULE": "Cc1[nH]n(-c2ccccc2)c(=S)c1C(=O)c1ccccc1", "ENDPOINT RESULT": "> 100 µM"}
{"MOLECULE": "COC(=O)C1CCc2c(OC)ccc(OC)c2C1=O (stereo unspecified)", "ENDPOINT RESULT": "> 100 µM"}
{"MOLECULE": "O=C1/C(=C\\c2ccccc2)c2ccccc2N1Cc1ccccc1", "ENDPOINT RESULT": "22 µM"}
{"MOLECULE": "C=C(CO)CC(O)c1ccccc1 (stereo unspecified)", "ENDPOINT RESULT": "> 100 µM"}
{"MOLECULE": "CC(NC(=O)C(N)Cc1ccccc1)C(=O)NC(Cc1ccc(O)cc1)C(=O)NC(Cc1c[nH]c2ccccc12)C(=O)NC(CCCCN)C(=O)NC(C(=O)NC(C)C(=O)NC(Cc1ccc2ccccc2c1)C(N)=O)C(C)C (stereo unspecified) (H-FAYWKVA[2Nal]-NH2; configuration not given here)", "ENDPOINT RESULT": "> 12.5 µM"}
{"MOLECULE": "Oc1cccc(C2SCc3nc4ccccc4n32)c1 (stereo unspecified)", "ENDPOINT RESULT": "> 100 µM"}
{"MOLECULE": "O=[N+]([O-])C(=C1Nc2ccccc2N1)C(Cl)=C(Cl)Cl", "ENDPOINT RESULT": "> 100 µM"}
{"MOLECULE": "COc1ccc(/C=N/NC(=O)O)cc1", "ENDPOINT RESULT": "> 100 µM"}
{"MOLECULE": "Nc1nc(=O)n(C2OC(CO)C(O)C2O)cc1F (stereo unspecified)", "ENDPOINT RESULT": "> 100 µM"}
{"MOLECULE": "O=C1c2c(Br)sc(Br)c2[C@H]2NC(=S)O[C@@H]12", "ENDPOINT RESULT": "3.74 µM"}
{"MOLECULE": "O=C1Nc2ccccc2SC1C1SC(=S)N(Cc2ccccc2)C1=O (stereo unspecified)", "ENDPOINT RESULT": "19.1 µM"}
{"MOLECULE": "O=c1cccc(C#CCCCCOC2CCCO2)o1 (stereo unspecified)", "ENDPOINT RESULT": "> 64.9 µM"}
{"MOLECULE": "Cc1cc(S(=O)(=O)Nc2nc(N)n(C)n2)c(S)cc1Cl", "ENDPOINT RESULT": "> 10 µM"}
{"MOLECULE": "CCOC(=O)c1sc2nc(SC)nc(Nc3ccc(OC)c(OC)c3)c2c1N", "ENDPOINT RESULT": "> 100 µM"}
{"MOLECULE": "CCN(C)S(=O)(=O)Nc1cccc(Nc2ncnc3cc(NC(=O)CCl)ccc23)c1Cl", "ENDPOINT RESULT": "2.03 µM"}
{"MOLECULE": "C[C@]12CC[C@H]3[C@@H](C[C@@H]4SC(Nc5cccc(F)c5)=N[C@@]45CC(=O)CC[C@]35C)[C@@H]1CCC2=O", "ENDPOINT RESULT": "3.06 µM"}
{"MOLECULE": "CC(C)NC(C)Cc1ccccc1 (stereo unspecified)", "ENDPOINT RESULT": "> 100 µM"}
{"MOLECULE": "COc1cc(OC)c(/C=N/N=C(\\N)NO)c(OC)c1", "ENDPOINT RESULT": "> 100 µM"}
{"MOLECULE": "COc1cc2c(cc1OC)-c1c(cc(OC)c(OC)c1OC)C2=O", "ENDPOINT RESULT": "> 100 µM"}
{"MOLECULE": "Cc1ccnc2c1NC(=O)c1cccnc1N2C1CC1", "ENDPOINT RESULT": "> 100 µM"}
